TARGET: BTK (Homo sapiens, UniProt Q06187)
Sequence (Q06187 402-655 limits assumed): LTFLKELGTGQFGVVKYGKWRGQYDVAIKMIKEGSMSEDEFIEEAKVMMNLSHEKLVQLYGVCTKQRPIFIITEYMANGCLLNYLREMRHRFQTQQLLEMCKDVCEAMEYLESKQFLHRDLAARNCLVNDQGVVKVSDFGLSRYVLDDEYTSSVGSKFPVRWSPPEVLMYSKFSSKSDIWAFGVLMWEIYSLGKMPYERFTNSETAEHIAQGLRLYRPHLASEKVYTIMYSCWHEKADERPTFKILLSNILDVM
TEST DETAILS: biochemical
RUN PARAMETERS: read-out: BTK inhibition (%), 0.75 uM BTK, […] probe 3l, 15 min preincubation
What inhibition at 10 µM was measured for each of the following?
Unit % implied. Number only.

Q: Endpoint output: inhibition at 10 µM of O=C(O)COCCN1CCN(C(c2ccccc2)c2ccc(Cl)cc2)CC1 (stereo not shown) [PCM-0065180] . Value?
A: 15.2

Q: Endpoint output: inhibition at 10 µM of O=c1[nH]c(=O)n(C2CCCO2)cc1F (stereo not shown) [PCM-0094899] . Value?
A: -3.1

Q: Endpoint output: inhibition at 10 µM of CNC(=O)c1cc(Oc2ccc(NC(=O)Nc3ccc(Cl)c(C(F)(F)F)c3)cc2)ccn1 [PCM-0094958] . Value?
A: 73.8

Q: Endpoint output: inhibition at 10 µM of CCC(=O)O[C@]1(C(=O)CCl)[C@@H](C)C[C@H]2[C@@H]3C[C@H](F)C4=CC(=O)C=C[C@]4(C)[C@@]3(F)[C@@H](O)C[C@@]21C [PCM-0214768] . Value?
A: 22.8

====

What inhibition at 10 µM was measured for each of the following?
TARGET: BTK (Homo sapiens, UniProt Q06187)
TEST DETAILS: biochemical
RUN PARAMETERS: read-out: BTK inhibition (%), 0.75 uM BTK, […] probe 3l, 15 min preincubation
Unit % implied. Number only.

Q: Tell me reported inhibition at 10 µM for CC(C)n1nccc1-c1ncccc1COc1cccc(O)c1C=O [PCM-0215847] , tested with BTK (Homo sapiens, UniProt Q06187).
A: -13.1

Q: Tell me reported inhibition at 10 µM for Cn1cnc(-c2cc3nccc(Oc4ccc(NC(=S)NC(=O)Cc5ccccc5)cc4F)c3s2)c1 [PCM-0094974] , tested with BTK (Homo sapiens, UniProt Q06187).
A: -6.9

Q: Tell me reported inhibition at 10 µM for O=C(c1cc(Cc2n[nH]c(=O)c3ccccc23)ccc1F)N1CCN(C(=O)C2CC2)CC1 [PCM-0094988] , tested with BTK (Homo sapiens, UniProt Q06187).
A: 9.7

Q: Tell me reported inhibition at 10 µM for COc1cc(OC)c(C(=O)CCCN2CCCC2)c(OC)c1 [PCM-0085999] , tested with BTK (Homo sapiens, UniProt Q06187).
A: -12.5

Q: Tell me reported inhibition at 10 µM for Fc1ccc2c(/C=C/c3nn[nH]n3)c[nH]c2c1 [PCM-0215746] , tested with BTK (Homo sapiens, UniProt Q06187).
A: 4.6

Q: Tell me reported inhibition at 10 µM for Cc1ccc(C(C)C)c(O)c1 [PCM-0215949] , tested with BTK (Homo sapiens, UniProt Q06187).
A: 23.2

Q: Tell me reported inhibition at 10 µM for CNS(=O)(=O)CCc1ccc2[nH]cc(C3CCN(C)CC3)c2c1 [PCM-0065268] , tested with BTK (Homo sapiens, UniProt Q06187).
A: -14.8

Q: Tell me reported inhibition at 10 µM for CC1(C)CC[C@]2(C(=O)O)CCC3=C(CC[C@@H]4[C@@]5(C)C[C@H](O)[C@H](O)[C@@](C)(C(=O)O)[C@@H]5CC[C@@]34C)[C@@H]2C1 [PCM-0216490] , tested with BTK (Homo sapiens, UniProt Q06187).
A: 10.8

Q: Tell me reported inhibition at 10 µM for Oc1ccc(OCc2ccccc2)cc1 [PCM-0086466] , tested with BTK (Homo sapiens, UniProt Q06187).
A: 8.6

====

TARGET: BTK (Homo sapiens, UniProt Q06187)
TEST DETAILS: biochemical
RUN PARAMETERS: read-out: BTK inhibition (%), 0.75 uM BTK, […] probe 3l, 15 min preincubation
What inhibition at 10 µM was measured for each of the following?
Unit % implied. Number only.

Q: Tell me reported inhibition at 10 µM for NC(=O)C[C@H](N)C(=O)O , tested with BTK (Homo sapiens, UniProt Q06187).
A: 13.6

Q: Tell me reported inhibition at 10 µM for CCC(C(=O)O)c1ccc(N2Cc3ccccc3C2=O)cc1 (stereo not drawn) , tested with BTK (Homo sapiens, UniProt Q06187).
A: -18.5

Q: Tell me reported inhibition at 10 µM for C[N+](C)(C)C[C@H](O)CC(=O)[O-] , tested with BTK (Homo sapiens, UniProt Q06187).
A: 10.1

Q: Tell me reported inhibition at 10 µM for CC(C)OC(=O)CCC/C=C\C[C@@H]1[C@@H](CC[C@@H](O)CCc2ccccc2)[C@H](O)C[C@@H]1O , tested with BTK (Homo sapiens, UniProt Q06187).
A: -13.1

Q: Tell me reported inhibition at 10 µM for O=c1[nH]c(-c2ccc(C(F)(F)F)cc2)nc2c1CSCC2 , tested with BTK (Homo sapiens, UniProt Q06187).
A: -25.5

Q: Tell me reported inhibition at 10 µM for CN(C)C/C=C/C(=O)Nc1cc2c(Nc3ccc(F)c(Cl)c3)ncnc2cc1O[C@H]1CCOC1 , tested with BTK (Homo sapiens, UniProt Q06187).
A: 84.8

Q: Tell me reported inhibition at 10 µM for Cc1cccc(C#Cc2ccccc2)n1 , tested with BTK (Homo sapiens, UniProt Q06187).
A: -10.9

Q: Tell me reported inhibition at 10 µM for C[C@@H]1C(=O)O[C@H]2[C@@H](O)[C@@]34[C@H]5C[C@@H](C(C)(C)C)[C@]36[C@@H](OC(=O)[C@@H]6O)O[C@@]4(C(=O)O5)[C@@]12O , tested with BTK (Homo sapiens, UniProt Q06187).
A: 16.3

Q: Tell me reported inhibition at 10 µM for CN1CCN(CCCN2c3ccccc3Sc3ccc(C(F)(F)F)cc32)CC1 , tested with BTK (Homo sapiens, UniProt Q06187).
A: -4.7

====

TARGET: UniProt Q06187
TEST DETAILS: biochemical
RUN PARAMETERS: read-out: BTK inhibition (%), 0.75 uM BTK, […] probe 3l, 15 min preincubation
What inhibition at 10 µM was measured for each of the following?
Unit % implied. Number only.

Q: Endpoint output: inhibition at 10 µM of Cc1c(CN2CCC(Nc3ncnc4sc(CC(F)(F)F)cc34)CC2)ccc2[nH]c(C#N)cc12 . Value?
A: 32.4

Q: Endpoint output: inhibition at 10 µM of C[C@H]1O[C@@H](O[C@H]2CC[C@@]3(C)[C@@H](CC[C@]4(C)[C@@H]3C=CC3=C5CC(C)(C)CC[C@]5(CO)[C@H](O)C[C@]34C)[C@]2(C)CO)[C@H](O)[C@@H](O[C@@H]2O[C@H](CO)[C@@H](O)[C@H](O)[C@H]2O)[C@H]1O . Value?
A: 5.4

Q: Endpoint output: inhibition at 10 µM of CCOCCn1c(N2CCCN(C)CC2)nc2ccccc21 . Value?
A: 2.3

====

TARGET: BTK (Homo sapiens)
TEST DETAILS: biochemical
RUN PARAMETERS: read-out: BTK inhibition (%), 0.75 uM BTK, […] probe 3l, 15 min preincubation
What inhibition at 10 µM was measured for each of the following?
Unit % implied. Number only.

Q: Endpoint output: inhibition at 10 µM of O=C(NC1CCOCC1)c1ccc(-c2cc(-c3cn[nH]c3-c3ccccn3)ccn2)cc1 [PCM-0095490] . Value?
A: 1.6

Q: Endpoint output: inhibition at 10 µM of Cc1cc(Nc2cc(N3CCN(C)CC3)nc(/C=C/c3ccccc3)n2)n[nH]1 [PCM-0095056] . Value?
A: 85.5

Q: Endpoint output: inhibition at 10 µM of O=C(/C=C/c1ccc(O)c(O)c1)c1ccc(O)cc1O [PCM-0095622] . Value?
A: 55.2

Q: Endpoint output: inhibition at 10 µM of CC(C)N(CCC(C(N)=O)(c1ccccc1)c1ccccn1)C(C)C (stereo not drawn) [PCM-0065027] . Value?
A: 5.4

Q: Endpoint output: inhibition at 10 µM of C[C@H](CC[C@@H](O[C@@H]1O[C@H](CO[C@@H]2O[C@H](CO)[C@@H](O)[C@H](O)[C@H]2O)[C@@H](O)[C@H](O)[C@H]1O[C@@H]1O[C@H](CO)[C@@H](O)[C@H](O)[C@H]1O)C(C)(C)O)[C@H]1CC[C@@]2(C)[C@@H]3CC=C4[C@@H](CC[C@H](O[C@@H]5O[C@H](CO[C@@H]6O[C@H](CO)[C@@H](O)[C@H](O)[C@H]6O)[C@@H](O)[C@H](O)[C@H]5O)C4(C)C)[C@]3(C)[C@H](O)C[C@]12C [PCM-0214952] . Value?
A: -2.3

Q: Endpoint output: inhibition at 10 µM of O=c1oc2cc(O)ccc2s1 [PCM-0090709] . Value?
A: -13.2

Q: Endpoint output: inhibition at 10 µM of CC(=O)OCC(=O)[C@H]1CC[C@H]2[C@@H]3CCC4=CC(=O)CC[C@]4(C)[C@H]3CC[C@]12C [PCM-0214761] . Value?
A: -11.7

Q: Endpoint output: inhibition at 10 µM of CCCC(=O)NCCc1csc(-c2ccc(Cl)cc2)n1 [PCM-0215869] . Value?
A: 2.3

Q: Endpoint output: inhibition at 10 µM of C1N2CN3CN1CN(C2)C3 [PCM-0086204] . Value?
A: -8.6

Q: Endpoint output: inhibition at 10 µM of Cc1ccc(-n2sc(=O)n(Cc3ccc(F)cc3)c2=O)cc1 [PCM-0095367] . Value?
A: -12.5

Q: Endpoint output: inhibition at 10 µM of CC(=O)OCC1=C[C@@H]2OC(=O)C3=CO[C@@H](O[C@@H]4O[C@H](CO)[C@@H](O)[C@H](O)[C@H]4O)[C@H]1[C@@H]32 [PCM-0216352] . Value?
A: 10.8

Q: Endpoint output: inhibition at 10 µM of CC[C@H]1OC(=O)[C@H](C)[C@@H](O[C@H]2C[C@@](C)(OC)[C@@H](O)[C@H](C)O2)[C@H](C)[C@@H](O[C@@H]2O[C@H](C)C[C@H](N(C)C)[C@H]2O)[C@](C)(O)C[C@@H](C)C(=O)[C@H](C)[C@H]2OC(=O)O[C@@]21C [PCM-0215364] . Value?
A: -20.8

Q: Endpoint output: inhibition at 10 µM of CC(=O)N[C@H]1[C@H]([C@H](O)[C@H](O)CO)OC(C(=O)O)=C[C@@H]1N=C(N)N [PCM-0095451] . Value?
A: -4.3

Q: Endpoint output: inhibition at 10 µM of C=C(C)[C@@H]1CC[C@]2(C(=O)O)CC[C@]3(C)[C@H](CC[C@@H]4[C@@]5(C)CC[C@H](OC(=O)CC(C)(C)C(=O)O)C(C)(C)[C@@H]5CC[C@]43C)[C@@H]12 [PCM-0216605] . Value?
A: 17.8

Q: Endpoint output: inhibition at 10 µM of COc1ccc(-c2cc(=O)c3c(OC)c(OC)c(OC)c(OC)c3o2)cc1OC [PCM-0091108] . Value?
A: 2.3

Q: Endpoint output: inhibition at 10 µM of Oc1ccc2c(c1)OCO2 [PCM-0214880] . Value?
A: -3.9

Q: Endpoint output: inhibition at 10 µM of Cc1ncc([N+](=O)[O-])n1C [PCM-0216192] . Value?
A: -21.4

Q: Endpoint output: inhibition at 10 µM of OC[C@H]1O[C@@H](O[C@H]2[C@H](O)[C@@H](O)C(O)O[C@@H]2CO)[C@H](O)[C@@H](O)[C@@H]1O (stereo partly drawn) [PCM-0215689] . Value?
A: -3.4

Q: Endpoint output: inhibition at 10 µM of Cc1cnc(Nc2ccc(N3CCN(C)CC3)cc2)nc1Nc1cccc(S(=O)(=O)NC(C)(C)C)c1 [PCM-0095386] . Value?
A: 82.8

Q: Endpoint output: inhibition at 10 µM of NC(=O)c1cnc2[nH]ccc2c1NC1[C@@H]2CC3C[C@H]1CC(O)(C3)C2 (stereo partly drawn) [PCM-0215550] . Value?
A: 94.5

Q: Endpoint output: inhibition at 10 µM of CC(C(=O)O)c1cccc(C(=O)c2ccccc2)c1 (stereo not drawn) [PCM-0065500] . Value?
A: -17.9

Q: Endpoint output: inhibition at 10 µM of Cc1c(C(=O)Nc2ccc(N3C[C@@H](C)O[C@@H](C)C3)nc2)cccc1-c1ccc(OC(F)(F)F)cc1 [PCM-0095316] . Value?
A: 6.2

Q: Endpoint output: inhibition at 10 µM of COCCOc1cnc2ccn([C@H](C)c3nnc4c(F)cc(-c5cnn(C)c5)cn34)c(=O)c2c1 [PCM-0215653] . Value?
A: 15.9

Q: Endpoint output: inhibition at 10 µM of NC(=O)c1ccc(I)c([N+](=O)[O-])c1 [PCM-0095053] . Value?
A: -1.4

Q: Endpoint output: inhibition at 10 µM of NC(=O)c1[nH]cnc1N [PCM-0214903] . Value?
A: -43.6

Q: Endpoint output: inhibition at 10 µM of COc1ccc(/C=C/C(=O)Nc2ccccc2C(=O)O)cc1OC [PCM-0065010] . Value?
A: 13.8

Q: Endpoint output: inhibition at 10 µM of COc1ccc(S(=O)(=O)Nc2cccnc2Nc2ccc(O)cc2)cc1 [PCM-0095016] . Value?
A: -14.5

Q: Endpoint output: inhibition at 10 µM of CC(C)C[C@H](NC(=O)CNC(=O)c1cc(Cl)ccc1Cl)B1OC(=O)CC(CC(=O)O)(C(=O)O)O1 (stereo partly drawn) [PCM-0095225] . Value?
A: -2.1

Q: Endpoint output: inhibition at 10 µM of CC[C@@H]1C(=O)N(C)c2cnc(Nc3ccc(C(=O)NC4CCC(N5CCN(CC6CC6)CC5)CC4)cc3OC)nc2N1C(C)C (stereo partly drawn) [PCM-0095279] . Value?
A: -14.5

Q: Endpoint output: inhibition at 10 µM of CN1CC(=O)N2[C@H](c3ccc4c(c3)OCO4)c3[nH]c4ccccc4c3C[C@@H]2C1=O [PCM-0214630] . Value?
A: -6.2
